Assay: chemical genetic growth profiling, strain panel (AID 1159580);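 also: tested at 20 µM; growth read once vehicle control cultures reached saturation at 30 °C; 1 = growth at the plate median or of vehicle wells; lower values mean less growth of the strain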
Settings: S. cerevisiae deletion strains, growth OD, locus YLR039C, strain RIC1
Screen size: about 5,500 compounds; about 2,000 (36%) were called active. Roughly 18% stayed inconclusive and do not appear here. Rule as the data show it: active = normalized growth mostly below about 0.91 (no sharp cut-off); inconclusive = no clear call, values can overlap the other calls; inactive = mostly above about 0.92. The list shows a part of the results.
Give your call using only these classes: active, inactive

Example cases with answers are listed next.
Exam item: What did the test return for COc1ccc2c(c1)O[C@@H]1COc3cc(OC)c(OC)cc3[C@@H]1C2=O ?
Marked response: inactive

Exam item: Which outcome was assigned to CC1=C(C(C)O)C2=NC1C=c1[nH]c(c(C)c1C(C)O)=Cc1[nH]c(c(CCC(=O)O)c1C)C=c1[nH]c(c(C)c1CCC(=O)O)=C2 (stereo unspecified) in this test?
Marked response: inactive

Exam item: # fetch the recorded call for CCC(=O)Nc1cc(F)ccc1C here
Marked response: inactive

Next:
Exam item: What did this assay record as the result for COc1ccc(NC(=O)c2cc(C(F)(F)F)cc(C(F)(F)F)c2)cn1 ?
Marked response: active

Exam item: Hey, what did the test say about COc1cc2c(cc1OC)[C@@H]1C(=O)c3ccc(O)c(CC=C(C)C)c3O[C@@H]1CO2 ?
Marked response: inactive

Exam item: Test call, this compound: OCC(O)C(O)C(O)CO (stereo unspecified)
Marked response: inactive

---

Assay: chemical genetic growth profiling, strain panel (AID 1159580);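 also: tested at 20 µM; growth read once vehicle control cultures reached saturation at 30 °C; 1 = growth at the plate median or of vehicle wells; lower values mean less growth of the strain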
Conditions: S. cerevisiae deletion strains, growth OD, locus YIL073C, strain SPO22
About 2,000 (36%) of roughly 5,500 compounds were called active. About 18% were inconclusive and are not listed. Rule as the data show it: active = normalized growth mostly below about 0.91 (no sharp cut-off); inconclusive = no clear call, values can overlap the other calls; inactive = mostly above about 0.92. The list shows a part of the results.
Assign a class; possible classes are active, inactive

Previously resolved entries follow.
Exam item: What did this assay record as the result for C=C(C)[C@@H]1[C@H]2OC(=O)[C@@H]1[C@]1(O)C[C@H]3O[C@]34C(=O)O[C@H]2[C@]14C ?
Marked response: inactive

Exam item: Please state the recorded outcome for this compound: C=C(C)C1CNC(C(=O)O)C1CC(=O)O (stereo unspecified)
Marked response: inactive

Exam item: Name the outcome recorded for CCCCCCCCCCCCCCCC[N+](C)(C)C in the assay.
Marked response: active

Exam item: Recorded test outcome, item OCC(O)C(O)C(O)CO (stereo unspecified)
Marked response: inactive

Exam item: Status in this test for C[C@H]1CC2C([C@@H](O)C[C@@]3(C)C2CC[C@]3(O)C(=O)CO)[C@@]2(C)C=CC(=O)C=C12 (stereo partly specified) ?
Marked response: inactive

New cases:
Exam item: What did this assay record as the result for S=c1nc[nH]c2nc[nH]c12 ?
Marked response: inactive

---

Test: chemical genetic growth profiling, strain panel (AID 1159580);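 also: tested at 20 µM; growth read once vehicle control cultures reached saturation at 30 °C; 1 = growth at the plate median or of vehicle wells; lower values mean less growth of the strain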
Settings: S. cerevisiae deletion strains, growth OD, locus YPL051W, strain arl3, active compounds read low
In all, about 5,500 compounds went through this assay and about 2,000 (36%) were called active. Roughly 18% stayed inconclusive and do not appear here. This is one part of the list.
metric_name: normalized growth
Numbers only.

Consider the following illustrative entries.
Exam item: Please report the recorded normalized growth for C=C(C)C1CNC(C(=O)O)C1CC(=O)O (stereo not given) .
Marked response: 0.998

Exam item: Would you kindly share the measured normalized growth for COc1cc2c(cc1OC)[C@@H]1C(=O)c3ccc4c(c3O[C@@H]1CO2)C=CC(C)(C)O4 ?
Marked response: 0.973

Exam item: Field request: normalized growth | item: O=C(O)c1cc2ccccc2[nH]1
Marked response: 0.979

Exam item: Return reported normalized growth; argument: COc1ccc2cc([C@H](C)C(=O)O)ccc2c1
Marked response: 0.994

Exam item: Entry under review: CC(C(=O)O)c1cccc(C(=O)c2ccccc2)c1 (stereo not given) . Reported normalized growth?
Marked response: 0.966

Please go through the list and note normalized growth for each compound.
1. C[C@]12CCC(=O)C=C1CCC1C2CC[C@@]2(C)C1CC[C@@H]2O (stereo not given in full)
2. COc1ccc(OC)c(C(O)C(C)N)c1 (stereo not given)
3. CC(=O)O[C@@H]1C[C@@]2(C)C(CC[C@@H]2C(C)=O)C2CCC3=CC(=O)CC[C@]3(C)C21 (stereo not given in full)
4. COc1cc2c(cc1OC)[C@@H]1C(=O)c3ccc(OC)c(CC=C(C)C)c3O[C@@H]1CO2
5. CC(C(=O)O)c1ccc(-c2ccccc2)c(F)c1 (stereo not given)

Marked response:
1
0.991
0.976
1.01
0.981
